- TARGET DESC: Catechol O-methyltransferase (Homo sapiens)
- MEASUREMENT PROTOCOL: Confirmatory Screen for Target Class Profiling of Small Molecule Inhibitors of Methyltransferases (AID 1745852)
- CONDITION SUMMARY: MTase-Glo luminescence, SAH detection, recombinant enzyme; measured here: COMT max response; stronger effect = lower value
REPORTED PROPERTY: activity (%)
Numbers only, in %.

Below: 10 compounds and their reported activity.
COc1cc2c(NC3CCN(C(C)C)CC3)nc(C3CCCCC3)nc2cc1OCCCN1CCCC1
-9
O=C(O)C1(Cc2cccc(Nc3nccs3)n2)CCC(Oc2cccc(Cl)c2F)CC1 (stereo not drawn)
-35
Cc1c(C)n(Cc2ccc(-c3ccccc3C(=O)O)cc2)c2ccc(C(=O)N[C@@H](C)c3ccc([N+](=O)[O-])cc3)cc12
-7.34
CC(C)c1cc(-c2n[nH]c(=O)n2-c2ccc3c(ccn3C)c2)c(O)cc1O
-27.7
Nc1nccc(Oc2ccc(NC(=O)c3c[nH]cc(-c4ccc(F)cc4)c3=O)cc2F)c1Cl
-3.16
Cn1c(CNc2ccc(C(=N)N)cc2)nc2cc(C(=O)N(CCC(=O)O)c3ccccn3)ccc21
-2.15
Cc1c(CN2CCN(S(C)(=O)=O)CC2)sc2c(N3CCOCC3)nc(-c3cnc(N)nc3)nc12
-10.4
Nc1nc(NCCNc2ncc(-n3ccnc3)c(-c3ccc(Cl)cc3Cl)n2)ccc1[N+](=O)[O-]
-0.828
Cc1cc(Nc2nc(N[C@@H](C)c3ccc(F)cc3)c(C#N)cc2F)n[nH]1
-4.92
CC[C@@H]1C(=O)N(C)c2cnc(Nc3ccc(C(=O)NC4CCN(C)CC4)cc3OC)nc2N1C1CCCC1
-18.1

Dear reader, for each entry below, please note its activity.
1. C=CC(=O)Nc1cccc(Oc2nc(Nc3ccc(N4CCN(C)CC4)cc3)ncc2Cl)c1
2. Nc1ncnc2c1c(-c1cnc3[nH]ccc3c1)nn2C1CCCC1
3. N#Cc1c(O)c2c(-c3ccc(-c4ccccc4O)cc3)csc2[nH]c1=O

1: -18; 2: -9.35; 3: 1.41
